Tested on: Nicotinate mononucleotide adenylyltransferase NadD (Staphylococcus aureus N315)
Assay: S. aureus NadD enzyme activity blockers – biochemical, colorimetric, single concentration, confirmation (AID 624309)
Details: purified S. aureus NadD, colorimetric enzyme assay; at 20 µM
Among all 2,000 compounds or so, about 260 (13%) were called active. Rule as the data show it: active = inhibition mostly above about 42% (no sharp cut-off); inactive = mostly below about 42%. Not all results are given here.
Response enum: Y for active, N for inactive

INPUT: Recorded test call requested for Cc1ccc(NS(=O)(=O)c2ccc(N/N=C/c3ccccc3OCC(=O)O)c([N+](=O)[O-])c2)c(C)c1
OUTPUT: Y

INPUT: One more compound: Nc1ccc2nc3c(=O)[nH]c(=S)[nH]c3nc2c1
OUTPUT: Y

INPUT: One more compound: CCOc1ccc(CCN2C(=S)N([C@@H](CC(C)C)CN3CCC[C@@H]3CN3C(=S)NC[C@@H]3Cc3ccc(O)cc3)C[C@@H]2Cc2ccc(O)cc2)cc1
OUTPUT: N

INPUT: One more compound: COc1ccc(-n2c(SCC(=O)Nc3sc4c(c3C#N)CCCC4)nnc2-c2ccc(O)cc2)cc1
OUTPUT: N

INPUT: One more compound: N#CCC(=O)Nc1ccc(C(=O)OCC(=O)Nc2sc3c(c2C#N)CCCC3)cc1
OUTPUT: N

INPUT: One more compound: COc1ccc(Br)cc1/C=N/Nc1ccc(S(=O)(=O)Nc2ccccc2C(=O)O)cc1[N+](=O)[O-]
OUTPUT: Y

INPUT: One more compound: COc1ccc(-c2nc3cnccn3c2NC2CCCCC2)cc1-c1cccc(Cl)c1
OUTPUT: N

INPUT: One more compound: S=c1[nH]nc(Nc2ccccc2)s1
OUTPUT: N

INPUT: One more compound: CCC(c1nnnn1Cc1ccco1)N(Cc1cc2cc(OC)ccc2[nH]c1=O)C1CCCCC1 (centres undefined)
OUTPUT: N

The measurements presented in this section are drawn from PubChem BioAssay AID624309.
